IC50 values by entry
System: Trypanosoma cruzi
Test: Trypanocidal activity against epimastigote stage of Trypanosoma cruzi assessed as cell viability after 24 hrs by MTT assay
A number alone suffices; assume µM.

Some molecules with recorded IC50:
O=C1C=C(Nc2cccc3ccccc23)C(=O)c2ccccc21 | 15.9
COc1cccc2c3c([nH]c12)C(=O)c1ccccc1C3=O | 20.9
CCCCCCOc1ccc(NC2=CC(=O)c3ccccc3C2=O)cc1 | 1.72

For the next question, use this molecule.
IC50 lookup needed for CCCCCCOc1ccc(NC2=C(Cl)C(=O)c3ccccc3C2=O)cc1 , thanks.
6.04

---

# IC50 values compiled below
System: Trypanosoma cruzi
Assay: Trypanocidal activity against epimastigote stage of Trypanosoma cruzi assessed as cell viability after 24 hrs by MTT assay

Record excerpt, results attached:
Cc1ccc(NC2=CC(=O)c3ccccc3C2=O)c(C)c1 | > 25 µM
COc1cc2c(cc1OC)C(=O)c1c([nH]c3cc(OC)c(OC)cc13)C2=O | > 100 µM

I'd like to know its IC50. The molecule in question is COc1ccc(NC2=CC(=O)c3ccccc3C2=O)c(OC)c1
> 25 µM

Which value of IC50 has been reported for Cn1ncc2c1C(=O)C1=C(CC(C)(C)O1)C2=O in the records?
2.53 µM

Find the recorded IC50 belonging to Cc1cnc2c(c1)C(=O)C=C(Nc1ccccc1)C2=O and report it.
5.79 µM

---

Items are presented alongside their recorded pIC50.
Assay: Antiproliferative activity against human dermal fibroblast cells after 72 hrs
Assay type: cell-based
pIC50: −log10 of the molar value.

Known results for compounds:
COc1cccc(NC2=CC(=O)c3ccccc3C2=O)c1 | < 4.00
COc1cc2c3c(n(C)c2cc1OC)C(=O)c1ccccc1C3=O | < 4.00
COc1ccc(NC2=CC(=O)c3ccccc3C2=O)cc1 | 4.18

Dear colleague, I am looking for the recorded pIC50 of the following compound: COc1ccccc1NC1=CC(=O)c2ccccc2C1=O
< 4.00

Quick check: pIC50 of COc1ccc2c(c1)c1c(n2C)C(=O)c2ccccc2C1=O ?
< 4.00

---

Test system: Trypanosoma cruzi
Experiment: Trypanocidal activity against epimastigote stage of Trypanosoma cruzi assessed as cell viability after 24 hrs by MTT assay
Reported IC50 is given for each of the following compounds.

COc1cccc(NC2=CC(=O)c3ccccc3C2=O)c1 | > 25 µM
COc1ccc(OC)c2c3c([nH]c12)C(=O)c1ccccc1C3=O | > 100 µM

With those in mind, consider the next compound.
Query (compound): COc1cc2c(cc1OC)C(=O)C(c1cc(OC)c(OC)cc1[N+](=O)[O-])=C(O)C2=O ; field requested: IC50
> 100 µM

---

Tested on: Trypanosoma cruzi
Experiment: Trypanocidal activity against epimastigote stage of Trypanosoma cruzi assessed as cell viability after 24 hrs by MTT assay
Catalogue of IC50 values

COc1ccc(OC)c(NC2=CC(=O)c3ccccc3C2=O)c1 | 23.3 µM

Please state recorded IC50 (tested on Trypanosoma cruzi) of COc1ccc(OC)c(NC2=C(Cl)C(=O)c3ccccc3C2=O)c1
> 100 µM

Under Trypanosoma cruzi: IC50 value of COc1ccc2c3c([nH]c2c1)C(=O)c1ccccc1C3=O ?
> 25 µM

Write down the reported IC50 of COc1cc2c3c(n(C)c2cc1OC)C(=O)c1ccccc1C3=O , test system: Trypanosoma cruzi.
> 100 µM

Please state recorded IC50 (tested on Trypanosoma cruzi) of COc1ccc(OC)c(NC2=CC(=O)C3=C(OC(C)(C)C3)C2=O)c1
12.3 µM

# value lookup — system Trypanosoma cruzi, readout IC50, item COc1ccc2c(c1)c1c(n2C)C(=O)c2ccccc2C1=O
> 25 µM

What reported IC50 corresponds to O=C1C=C(Nc2ccc(O)cc2)C(=O)c2ccccc21 on Trypanosoma cruzi?
> 25 µM

# value lookup — system Trypanosoma cruzi, readout IC50, item O=C1c2ccccc2C(=O)c2c1[nH]c1ccccc21
> 10 µM

Form: Entry = COc1ccc(NC2=CC(=O)c3ccccc3C2=O)cc1OC | System = Trypanosoma cruzi | IC50 = ____
25 µM

Notebook: pull reported IC50 for Trypanosoma cruzi, entry CCCCCCOc1ccc2[nH]c3c(c2c1)C(=O)c1ccccc1C3=O
> 100 µM

GET /values?readout=IC50&system=Trypanosoma cruzi&item= CC1CS(=O)(=O)CCN1/N=C/c1ccc([N+](=O)[O-])o1 (centres undefined)
21.1 µM

Query for Trypanosoma cruzi: what IC50 does the record show for O=C1C=C(Nc2ccc3ccccc3c2)C(=O)c2ccccc21 ?
9.02 µM

Form: Entry = O=C1C=C(Nc2ccccc2)C(=O)c2ccccc21 | System = Trypanosoma cruzi | IC50 = ____
> 25 µM

Return IC50 measured with Trypanosoma cruzi given this compound: O=C1C(O)=C(c2ccccc2[N+](=O)[O-])C(=O)c2ccccc21
> 100 µM

Can you look up IC50 on Trypanosoma cruzi for COc1ccc(OC)c(NC2=CC(=O)c3ncccc3C2=O)c1 ?
2.45 µM

Value wanted: IC50 (Trypanosoma cruzi) of entry O=C1C(Cl)=C(Nc2cccnc2)C(=O)c2ccccc21
> 100 µM

Form field - read-out: IC50; system: Trypanosoma cruzi; submitted item: COc1ccc2[nH]c3c(c2c1)C(=O)c1ccccc1C3=O
> 50 µM

Give IC50 (Trypanosoma cruzi) of the following compound: COc1ccc(NC2=CC(=O)c3ccccc3C2=O)cc1
> 25 µM

What measured IC50 is associated with COc1ccccc1NC1=CC(=O)c2ccccc2C1=O on Trypanosoma cruzi?
3.49 µM

---

Assay: Antiproliferative activity against human dermal fibroblast cells after 72 hrs
Type: cell-based
pIC50: −log10 of the molar value.
PROPERTY_NAME: pIC50

Examples from the recorded data:
COc1ccc(OC)c(NC2=CC(=O)c3ccccc3C2=O)c1 | < 4.00
CCCCCCOc1ccc(NC2=CC(=O)c3ccccc3C2=O)cc1 | < 4.00
COc1cccc2c3c([nH]c12)C(=O)c1ccccc1C3=O | < 4.00
COc1ccc(OC)c(NC2=CC(=O)c3ncccc3C2=O)c1 | 4.65
COc1cccc2c1C(=O)c1c(O)c3c(c(O)c1C2=O)C[C@@](O)(C(=O)CO)C[C@@H]3O[C@H]1C[C@H](N)[C@H](O)[C@H](C)O1 | 5.10

Which pIC50 value belongs to COc1ccc2[nH]c3c(c2c1)C(=O)c1ccccc1C3=O ?
< 4.00

Name the recorded pIC50 for COc1ccc(NC2=CC(=O)c3ccccc3C2=O)c(OC)c1 .
< 4.00

// lookup pIC50 for CCCCCCOc1ccc(NC2=C(Cl)C(=O)c3ccccc3C2=O)cc1
< 4.00

I would be grateful if you could share the reported pIC50 for COc1ccc(NC2=CC(=O)c3ccccc3C2=O)cc1OC .
< 4.00
